Values compiled from patent US20220185900A1.

Target: T1, Macaca fascicularis (mf) RET.mmh (Macaca fascicularis)
T1 construct: also called monkey RET
T1 chain: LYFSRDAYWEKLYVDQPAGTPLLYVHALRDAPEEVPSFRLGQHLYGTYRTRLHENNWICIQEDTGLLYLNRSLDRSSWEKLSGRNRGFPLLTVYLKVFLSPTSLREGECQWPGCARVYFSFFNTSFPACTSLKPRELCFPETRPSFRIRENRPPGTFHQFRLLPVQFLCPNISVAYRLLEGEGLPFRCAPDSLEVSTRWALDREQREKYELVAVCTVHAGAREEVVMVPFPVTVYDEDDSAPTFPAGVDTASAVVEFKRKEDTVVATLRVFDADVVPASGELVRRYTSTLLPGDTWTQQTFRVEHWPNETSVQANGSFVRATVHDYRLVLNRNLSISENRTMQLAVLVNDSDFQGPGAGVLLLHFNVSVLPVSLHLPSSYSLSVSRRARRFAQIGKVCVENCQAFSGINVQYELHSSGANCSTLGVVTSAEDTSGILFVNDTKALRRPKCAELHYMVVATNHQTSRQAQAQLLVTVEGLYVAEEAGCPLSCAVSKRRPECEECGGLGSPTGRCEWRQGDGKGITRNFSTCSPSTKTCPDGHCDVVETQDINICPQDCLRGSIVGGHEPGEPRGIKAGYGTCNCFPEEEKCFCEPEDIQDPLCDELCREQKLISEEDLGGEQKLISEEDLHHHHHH
Test: SPR Biacore T200, mAb capture, 25 C
Flag rule - Kd less than 1 nM flags 1 (yes); the remaining entries get 0 (no).

Query string: Problem: For the binder H4H8062P (antibody, human IgG4, V domains shown, human IgG4 Fc (H4H prefix)) VH: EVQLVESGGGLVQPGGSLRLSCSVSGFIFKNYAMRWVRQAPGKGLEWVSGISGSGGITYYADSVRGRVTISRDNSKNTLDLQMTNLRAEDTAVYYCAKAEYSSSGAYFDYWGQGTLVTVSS VL: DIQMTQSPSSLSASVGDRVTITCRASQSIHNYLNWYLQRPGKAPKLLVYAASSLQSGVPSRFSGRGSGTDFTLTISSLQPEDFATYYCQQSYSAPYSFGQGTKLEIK , is Kd under 1 nM?
Result string: 0 (no)

Others:
Query string: Problem: For the binder H4H8060P (antibody, human IgG4, V domains shown, human IgG4 Fc (H4H prefix)) VH: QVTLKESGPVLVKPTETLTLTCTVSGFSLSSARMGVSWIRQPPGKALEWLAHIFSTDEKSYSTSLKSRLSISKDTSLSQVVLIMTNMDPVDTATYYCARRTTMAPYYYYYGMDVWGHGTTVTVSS VL: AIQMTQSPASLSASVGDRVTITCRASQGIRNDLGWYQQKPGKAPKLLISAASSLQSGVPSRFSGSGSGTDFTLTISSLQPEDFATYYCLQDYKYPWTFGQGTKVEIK , is Kd under 1 nM?
Result string: 1 (yes)

Query string: Problem: For the binder H4H8084P (antibody, human IgG4, V domains shown, human IgG4 Fc (H4H prefix)) VH: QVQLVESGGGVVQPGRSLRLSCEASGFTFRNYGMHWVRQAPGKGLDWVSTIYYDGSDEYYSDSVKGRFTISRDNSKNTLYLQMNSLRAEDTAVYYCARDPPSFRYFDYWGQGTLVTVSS VL: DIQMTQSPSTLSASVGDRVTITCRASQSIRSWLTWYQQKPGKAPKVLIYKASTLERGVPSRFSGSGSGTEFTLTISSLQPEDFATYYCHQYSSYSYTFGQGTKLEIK , is Kd under 1 nM?
Result string: 1 (yes)

Query string: Problem: For the binder H4H8071P (antibody, human IgG4, V domains shown, human IgG4 Fc (H4H prefix)) VH: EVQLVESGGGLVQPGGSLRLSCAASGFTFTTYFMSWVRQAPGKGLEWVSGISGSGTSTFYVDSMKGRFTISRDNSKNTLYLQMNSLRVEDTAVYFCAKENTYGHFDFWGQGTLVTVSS VL: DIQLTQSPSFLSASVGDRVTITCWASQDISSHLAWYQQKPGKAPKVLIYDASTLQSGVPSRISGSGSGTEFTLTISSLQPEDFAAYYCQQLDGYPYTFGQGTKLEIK , is Kd under 1 nM?
Result string: 0 (no)

Query string: Problem: For the binder H4H8076P (antibody, human IgG4, V domains shown, human IgG4 Fc (H4H prefix)) VH: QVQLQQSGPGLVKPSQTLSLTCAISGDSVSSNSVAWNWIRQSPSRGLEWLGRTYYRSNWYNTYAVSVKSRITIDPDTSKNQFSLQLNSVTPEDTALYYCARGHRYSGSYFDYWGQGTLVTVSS VL: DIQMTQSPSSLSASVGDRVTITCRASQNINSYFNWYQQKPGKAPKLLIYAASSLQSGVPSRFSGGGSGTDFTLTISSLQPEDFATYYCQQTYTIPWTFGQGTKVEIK , is Kd under 1 nM?
Result string: 0 (no)
